Source: PubChem BioAssay (NCI)

System: BT-549 breast
testSummary: NCI-60 one-dose screen, 48 h (100 = growth as untreated, 0 = no growth, -100 = all killed)
conditionParameters: 10 µM unless noted
About 83,000 compounds went through this panel and 20% of them were active in at least one assay; those are over-represented in the sample as a whole. Active and inactive are the calls of the source. Rule for the calls: active = growth percent below 10; inactive = the rest.
For each entry below, report its growth value.

Query string: Recorded growth of NC(=O)c1ncn2c(=O)n(CCF)nnc12 , please.
Result string: 110% (inactive)

Query string: Consider the compound shown here: CCCCCCN1C=C/C(=C\C(=O)n2ccc3ccccc32)c2ccccc21 What is its recorded growth?
Result string: 65% (inactive)

Query string: Would you kindly share the measured growth for COc1ccc(Cn2cc(C#N)c(N)c2C(C)=O)cc1 ?
Result string: 114% (inactive)

Query string: Sample O=C(CCCCCC/C=C\c1csc(Br)n1)NO — what was its growth?
Result string: 103% (inactive)

* * *

Tested on: NCI-H322M lung
testSummary: NCI-60 one-dose screen, 48 h
conditionParameters: 10 µM unless noted
About 83,000 compounds went through this panel and 20% of them were active in at least one assay; those are over-represented in the sample as a whole. Calls of active or inactive are those of the source. How the source made its calls: active means growth percent below 10; inactive means the rest.
Allowed answers: class 1 for active, class 0 for inactive

Query string: Answer briefly: the call reported for Oc1[nH]c2ccc(Cl)cc2c1N=Nc1nc(N=Nc2c(O)[nH]c3ccc(Cl)cc23)nc(N2CCOCC2)n1 in this assay.
Result string: class 0

Query string: Short answer needed: outcome of this test for C[C@]12CC[C@H]3[C@@H](CC=C4C[C@@H](O)CC[C@@]43C)[C@@H]1CC[C@@H]2[C@](C)(O)CCc1cccnc1 ?
Result string: class 0

Query string: Hey, what did the test say about CCN(CC)CCOc1ccc(C(=C(C)Cc2ccc(OC)cc2)c2ccc(OCCN(CC)CC)cc2)cc1 ?
Result string: class 0

Query string: Returns: the outcome recorded for C#CCOc1cccc(-c2nc(N)nc(Nc3ccccc3SSc3ccccc3Nc3nc(N)nc(-c4cccc(OCC#C)c4)n3)n2)c1 in this assay.
Result string: class 0

Query string: Record lookup: outcome of this test for CN1CCN(Cc2ccc(NC(=O)c3cncc(C#Cc4cnc5ccc(N6CCOCC6)nn45)c3)cc2C(F)(F)F)CC1 ?
Result string: class 1

Query string: In this assay, the call recorded for NC1C2CCC1CN(c1cnc(C(=O)Nc3cc(F)cc4cccnc34)cn1)C2 (configuration not stated) was what?
Result string: class 0

Query string: Dear colleague, could you share the recorded outcome for Cc1ccc(NC(=O)/C=C/c2ccc(OCCCOc3ccc4c(C)cc(=O)oc4c3)cc2)cc1 when you have a moment?
Result string: class 0

Query string: What was the test verdict on CN1CCN(Cc2ccc(NC(=O)c3cncc(C#Cc4cnc5ccc(O[C@@H]6CCOC6)nn45)c3)cc2C(F)(F)F)CC1 ?
Result string: class 1

Query string: Please state the recorded outcome for this molecule: CC(C)(C)Nc1nc2c(OCCc3ccccc3)cccn2c1-c1cccc(Oc2ccccc2)c1
Result string: class 0

Query string: Any idea what this test logged for O=C(CCCCCCNC(=O)C(O)(O)C(F)(F)F)Nc1ncc(-c2ccccc2)s1 ?
Result string: class 1

Query string: Given O=S(=O)(NCCCNc1nccc(-c2[nH]c(-c3ccccc3)nc2-c2ccc(F)c(O)c2)n1)c1ccc(C(F)(F)F)cc1 , state the outcome it received in this test.
Result string: class 0

Query string: I'd appreciate the recorded outcome for Cn1cc(-c2nn3cc(-c4ccncc4)nc3s2)c2cc(F)ccc21 from this test.
Result string: class 0
